B1: Homeobox expressed in ES cells 1, residues 110 to 165; numbered along this chain, Q9UBX0 (parent)
chain: RPRTAFTQNQIEVLENVFRVNCYPGIDIREDLAQKLNLEEDRIQIWFQNRRAKLKR

Variants of: B1
Experiment: abundance fitness (aPCA) (normalised: wild type 0, dead -1); higher = more abundant; growth selection in yeast, the domain comes from the species named
Conditions: Homo sapiens
Mark TRUE for reported abundance fitness of -0.4 or greater; mark FALSE for anything smaller.

N21Q : TRUE
V13T : TRUE
E12Y : TRUE
P2K : TRUE
V20H : TRUE
D27H : FALSE
A5V : TRUE
R19S : TRUE
Q8A : TRUE
I26P : TRUE

Could you verify whether the entry F18Q shows abundance fitness of no less than -0.4?
FALSE

Could you verify whether the entry R3C shows abundance fitness of no less than -0.4?
FALSE

Could you verify whether the entry P24R shows abundance fitness of no less than -0.4?
FALSE

Could you verify whether the entry E30Y shows abundance fitness of no less than -0.4?
FALSE

Could you verify whether the entry Q8V shows abundance fitness of no less than -0.4?
TRUE

Could you verify whether the entry P24G shows abundance fitness of no less than -0.4?
FALSE
